Test system: fibrin-induced microglia activation
Test: Image-based assay of fibrin-induced microglia activation (HTS and dose response)
Assay type: cell-based, rat
Settings: Rattus norvegicus, Microglia, primary microglia HTS, fibrin stimulation, compounds at 10 μM; read-out: Fibrin % inhibition
Provide the recorded inhibition at 10 µM for the entries that follow.
Give bare numbers, in %.

>  <molecule>
CCC1(CC)C(=O)NC(=O)NC1=O [Barbital]

>  <inhibition at 10 µM, %>
-5

$$$$

Would you mind listing inhibition at 10 µM for each of the following molecules?
1. CCOC(=O)COc1ccc2c(=O)cc(-c3ccccc3)oc2c1 [Efloxate]
2. Cc1cc(=O)n(-c2ccccc2)n1C [Antipyrine]
3. OC[C@@H](O)[C@@H](O)CO [Erythritol]
4. C[C@@H](O[C@H]1OCCN(Cc2n[nH]c(=O)[nH]2)[C@H]1c1ccc(F)cc1)c1cc(C(F)(F)F)cc(C(F)(F)F)c1 [Aprepitant]

## Output
1: -8; 2: -8; 3: -25; 4: 20
